The reported numbers originate from ChEMBL document CHEMBL1126178.

Species on record: Cavia porcellus
PROTOCOL DETAILS: Dose inhibiting the ionotropic response induced by hCGRP-alpha in guinea pig right atrium.
Type: functional
MEASUREMENT CONDITIONS: Cardiac atrium
Each entry below carries its recorded EC50.

* H-VTHALAGLLSRSGGVVKNNFVPTNVGSKAF-NH2 | 106 nM

### Prompt So what's the measured EC50 for this one? "H-VTHRAAGLLSRSGGVVKNNFVPTNVGSKAF-NH2"
### Response 116 nM

---

SYSTEM: Calcitonin gene-related peptide type 1 receptor (Rattus norvegicus)
Sequence (Q63118 whole entry): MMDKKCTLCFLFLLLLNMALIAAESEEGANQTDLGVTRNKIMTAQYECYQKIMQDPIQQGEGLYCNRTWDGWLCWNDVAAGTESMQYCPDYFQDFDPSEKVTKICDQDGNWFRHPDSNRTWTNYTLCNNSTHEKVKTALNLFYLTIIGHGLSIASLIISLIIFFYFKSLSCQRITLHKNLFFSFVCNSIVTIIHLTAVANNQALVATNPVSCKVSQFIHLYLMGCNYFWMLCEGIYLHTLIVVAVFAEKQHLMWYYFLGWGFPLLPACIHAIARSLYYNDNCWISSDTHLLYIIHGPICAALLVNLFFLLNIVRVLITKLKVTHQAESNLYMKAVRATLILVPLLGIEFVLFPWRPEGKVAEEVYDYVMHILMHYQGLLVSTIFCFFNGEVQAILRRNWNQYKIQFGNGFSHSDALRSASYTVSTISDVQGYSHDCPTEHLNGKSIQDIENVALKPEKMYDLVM
PROTOCOL DETAILS: Binding affinity against [125I]-hCalcitonin gene-related peptide type alpha receptor binding sites in rat brain membrane
Format: cell membranes
MEASURED PROPERTY: pIC50
Please report pIC50 as the negative decimal logarithm of the molar concentration, giving only the number.

- H-VTHRAAGLLSRSGGVVKNNFVPTNVGSKAF-NH2: 7.66

### Prompt So what's the measured pIC50 for this one? "H-VTHALAGLLSRSGGVVKNNFVPTNVGSKAF-NH2"
### Response 7.48
